The reported numbers originate from the supplement of paper PMC8866396.

test system: IL-6-GFP PC-9GR; experiment: cell viability (CCK-8 OD) relative to DMSO control (fraction of control); higher = more viable cells; details: compound concentration: 10 uM; treatment time: 48 h
I'd be grateful if you could share measured cell viability for these entries.
// no unit, no text: just the number

## Task Item: CCC1(O)C(=O)OCc2c1cc1n(c2=O)Cc2c-1nc1ccccc1c2CCNC(C)C.Cl (stereo not drawn) [Belotecan (CKD-602) hydrochloride] Test system: IL-6-GFP PC-9GR Read-out: cell viability Value: ?
## Result 0.322

## Task Item: Cc1cccc(C(C)c2c[nH]cn2)c1C.Cl (stereo not drawn) [Medetomidine HCl] Test system: IL-6-GFP PC-9GR Read-out: cell viability Value: ?
## Result 1.25

## Task Item: CC12CCC3C(CCC4=C(O)C(=O)CCC43C)C1CCC2=O (stereo not drawn) Test system: IL-6-GFP PC-9GR Read-out: cell viability Value: ?
## Result 1.4

## Task Item: NC(Cc1ccc(N(CCCl)CCCl)cc1)C(=O)O (stereo not drawn) Test system: IL-6-GFP PC-9GR Read-out: cell viability Value: ?
## Result 0.78

## Task Item: O=C(O)C1C2CCC(O2)C1C(=O)[O][Na] (stereo not drawn) [Sodium Demethylcantharidate] Test system: IL-6-GFP PC-9GR Read-out: cell viability Value: ?
## Result 1.12

## Task Item: O.O=P1(N(CCCl)CCCl)NCCCO1 (stereo not drawn) [Cyclophosphamide Monohydrate] Test system: IL-6-GFP PC-9GR Read-out: cell viability Value: ?
## Result 1.16

## Task Item: Cn1cc(C2=C(c3cn(C4CCN(Cc5ccccn5)CC4)c4ccccc34)C(=O)NC2=O)c2ccccc21 Test system: IL-6-GFP PC-9GR Read-out: cell viability Value: ?
## Result 1.09

## Task Item: CC(C)[N+](C)(CCC(C(N)=O)(c1ccccc1)c1ccccc1)C(C)C.[I-] [Isopropamide Iodide] Test system: IL-6-GFP PC-9GR Read-out: cell viability Value: ?
## Result 0.876

###

tested on: IL-6-GFP PC-9GR; assay: cell viability (CCK-8 OD) relative to DMSO control (fraction of control); higher = more viable cells; settings: compound concentration: 10 uM; treatment time: 48 h
measured-endpoint: cell viability
// no unit, no text: just the number

## Task Look at this compound and give its reported cell viability. O=C(O)c1nn(Cc2ccc(Cl)cc2Cl)c2ccccc12
## Result 1.29

## Task Look at this compound and give its reported cell viability. CC(C)(C)NCC(O)c1ccccc1Cl.Cl (stereo not given) [Tulobuterol hydrochloride]
## Result 1.07

## Task Look at this compound and give its reported cell viability. Cl.Cn1c(CCCC(=O)O)nc2cc(N(CCCl)CCCl)ccc21 [Bendamustine HCl]
## Result 1.26

## Task Look at this compound and give its reported cell viability. O=C(O)CCCc1ccc(N(CCCl)CCCl)cc1
## Result 0.937

## Task Look at this compound and give its reported cell viability. COC1=CC2C3Cc4ccc(OC)c(O)c4C2(CCN3C)CC1=O (stereo not given)
## Result 1.31

## Task Look at this compound and give its reported cell viability. COC1=CC2C3Cc4ccc(OC)c(O)c4C2(CCN3C)CC1=O.Cl (stereo not given) [Sinomenine hydrochloride]
## Result 1.33

## Task Look at this compound and give its reported cell viability. O=c1c2ccccc2[se]n1-c1ccccc1
## Result 0.788

## Task Look at this compound and give its reported cell viability. CC(C)C12OC1C1OC13C1(C)CCC4=C(COC4=O)C1CC1OC13C2=O (stereo not given) [Triptonide]
## Result 0.403

## Task Look at this compound and give its reported cell viability. c1ccc2c(c1)Sc1ccccc1N2CC1CN2CCC1CC2 (stereo not given)
## Result 0.705

## Task Look at this compound and give its reported cell viability. COc1cc(C2c3cc4c(cc3C(O)C3COC(=O)C23)OCO4)cc(OC)c1OC (stereo not given)
## Result 0.668

## Task Look at this compound and give its reported cell viability. C=CCN1CC(C(=O)N(CCCN(C)C)C(=O)NCC)CC2c3cccc4[nH]cc(c34)CC21 (stereo not given)
## Result 0.968

## Task Look at this compound and give its reported cell viability. CC1CC(=O)CC2CCC3C4CCC(O)C4(C)CCC3C12C (stereo not given)
## Result 1.26

## Task Look at this compound and give its reported cell viability. Cc1c(N)nc(C(CC(N)=O)NCC(N)C(N)=O)nc1C(=O)NC(C(=O)NC(C)C(O)C(C)C(=O)NC(C(=O)NCCc1nc(-c2nc(C(=O)NCCC[S+](C)C)cs2)cs1)C(C)O)C(OC1OC(CO)C(O)C(O)C1OC1OC(CO)C(O)C(OC(N)=O)C1O)c1c[nH]cn1.O=S(=O)([O-])O (stereo not given) [Bleomycin sulfate]
## Result 0.653

## Task Look at this compound and give its reported cell viability. O=P1(NCCCl)OCCCN1CCCl (stereo not given) [Ifosfamide]
## Result 1.15

## Task Look at this compound and give its reported cell viability. CCC1=CC2CN3CCc4c([nH]c5ccccc45)C(C(=O)OC)(C2)C13 (stereo not given)
## Result 1.02
